system: SH-SY5Y human neuroblastoma cells; conditions: absence of H2O2, viability below 80%
Each record is given rule met if its reported CC1 (cytotoxic concentration) is strictly below 20 µM. Records at or above 20 µM are given rule not met.

A selection of reference data follows.
>>> df
                                   compound  category_label
0  Cc1cc(=O)c(O)c(C(N2CCOCC2)C(F)(F)F)n1C (centres unmarked) [Apo7333]    rule not met
1  C[C@H](NCc1cc(=O)c(O)c(C(O)C(F)(F)F)n1C)C(=O)O (some centres unmarked) [Apo7032]        rule met
2  Cn1ccc(=O)c(O)c1C(C(F)F)N1CCCCC1 (centres unmarked) [Apo7319]    rule not met
3  Cc1c(O)c(=O)c(C(N(C)C)C(F)(F)F)cn1C (centres unmarked) [Apo7053]        rule met
4  Cc1c(O)c(=O)c(C(N2CCN(C)CC2)C(F)(F)F)cn1C.Cl (centres unmarked) [Apo7063]    rule not met

Okay, next one:
Strictly below 20 µM: is that where CC1 (cytotoxic concentration) of CCc1c(O)c(=O)ccn1CC(F)(F)F [Apo7030] sits?
rule not met

Just for reference, patent US9938240B2 is where these values come from.
